Recorded FRETβ efficacy (value in brackets) values for a group of molecules are listed next.
target: LXRβ ligand-binding domain (Homo sapiens, UniProt P55055, DUP175-175)
Construct: amino acids 156-461; NP009052; made in house; host or cells: E. coli
measurement protocol: TR-FRETβ activity assay (NCoA3 coactivator peptide recruitment)
Type: biochemical
condition summary: 1 μM 24(S)-25-epoxycholesterol as prestimulating agonist
Quick reminder: number only, in %, skip the unit.

Illustrative cases are given below, each with its answer.
In [3]: df
Out[3]:
                                   molecule                     outcome_measure  measured_result
0  Cc1ccc(S(=O)(=O)n2c(-c3cccc(N4CC(C(=O)O)C4)c3)c(-c3ccsc3C#N)c3cc(F)ccc32)cc1 [3/32]  FRETβ efficacy (value in brackets)              −98
1  Cc1ccc(S(=O)(=O)n2c(-c3cccc(N4CC(C(=O)O)C4)c3)c(-c3csc(C#N)c3)c3cc(F)ccc32)cc1 [C3/29, reference compound]  FRETβ efficacy (value in brackets)             −102
2  N#Cc1ccccc1-c1c(-c2cccc(-c3ccc(C(=O)O)cc3Cl)c2)n(S(=O)(=O)c2ccc(C(F)F)cc2)c2ccc(F)cc12 [11/33]  FRETβ efficacy (value in brackets)              −99
3  O=C(O)c1ccc(-c2cccc(-c3c(-c4ccccc4)c4cc(F)ccc4n3S(=O)(=O)c3ccc(C(F)F)cc3)c2)c(Cl)c1 [C11/39, reference compound]  FRETβ efficacy (value in brackets)              −91

Next molecule, FRETβ efficacy (value in brackets) to be filled in.
Ask | Identify the measured FRETβ efficacy (value in brackets) of N#Cc1cccc(-c2c(-c3cccc(-c4ccc(C(=O)O)cc4Cl)c3)n(S(=O)(=O)c3ccc(C(F)F)cc3)c3ccc(F)cc23)c1 [C11/48, reference compound] for LXRβ ligand-binding domain (Homo sapiens, UniProt P55055, DUP175-175).
Reply | −96

---

target: LXRβ ligand-binding domain (Homo sapiens, UniProt P55055, DUP175-175)
Construct: amino acids 156-461; NP009052; made in house; host or cells: E. coli
measurement protocol: TR-FRETβ activity assay (NCoA3 coactivator peptide recruitment)
Format: biochemical
condition summary: 1 μM 24(S)-25-epoxycholesterol as prestimulating agonist; read-out: FRETβ potency
Description: The tested compounds were usually dissolved, tested and stored as 20 mM stock solutions in DMSO. Since sulfonyl acetic acid derivatives tend to decarboxylate under these conditions, these stock solutions were prepared, tested and stored as 20 mM DMSO stock solutions containing 100 mM trifluoroacetic Acid (5 equivalents). Sulfonyl acetic acid derivatives are shelf stable as solid at rt for long time as reported by Griesbrecht et al. (Synlett 2010:374) or Faucher et al. (J. Med. Chem. 2004; 47:18). […]
outcome measure: pEC50
pEC50 is a log-scale quantity: -log10 of the concentration expressed in molar.

Illustrative cases are given below, each with its answer.
In [3]: df
Out[3]:
                                   molecule                                    target  measured_result
0  N#Cc1cccc(-c2c(-c3cccc(-c4ccc(C(=O)O)cc4Cl)c3)n(S(=O)(=O)c3ccc(C(F)F)cc3)c3ccc(F)cc23)c1 [C11/48, reference compound]  LXRβ ligand-binding domain (Homo sapiens, UniProt P55055, DUP175-175)             7.31
1  O=C(O)c1ccc(-c2cccc(-c3c(-c4ccccc4)c4cc(F)ccc4n3S(=O)(=O)c3ccc(C(F)F)cc3)c2)c(Cl)c1 [C11/39, reference compound]  LXRβ ligand-binding domain (Homo sapiens, UniProt P55055, DUP175-175)             6.98
2  Cc1ccc(S(=O)(=O)n2c(-c3cccc(N4CC(C(=O)O)C4)c3)c(-c3csc(C#N)c3)c3cc(F)ccc32)cc1 [C3/29, reference compound]  LXRβ ligand-binding domain (Homo sapiens, UniProt P55055, DUP175-175)             5.37
3  Cc1ccc(S(=O)(=O)n2c(-c3cccc(N4CC(C(=O)O)C4)c3)c(-c3ccsc3C#N)c3cc(F)ccc32)cc1 [3/32]  LXRβ ligand-binding domain (Homo sapiens, UniProt P55055, DUP175-175)             6.26

Ask | # pEC50 lookup, item N#Cc1ccccc1-c1c(-c2cccc(-c3ccc(C(=O)O)cc3Cl)c2)n(S(=O)(=O)c2ccc(C(F)F)cc2)c2ccc(F)cc12 [11/33]
Reply | 7.72

---

target: full length (FL) LXRβ (Homo sapiens, UniProt P55055, DUP175-175)
Construct: the full length (FL) proteins of LXRα (amino acids 1-447); NP005684; NP009052; expressed in transfected cells; host or cells: HEK293
measurement protocol: LXR Gal4 reporter transient transfection assay (FL-M2H Gal4β)
Assay type: cell-based
condition summary: HEK293 cells, full length LXRβ; read-out: FL-M2H Gal4β (EC50 range)
Recorded EC50 values for a group of molecules are listed next.

Illustrative cases are given below, each with its answer.
>>> df
                                   molecule  measured_result
0  O=C(O)c1ccc(-c2cccc(-c3c(-c4ncccc4OC(F)F)c4cc(F)ccc4n3S(=O)(=O)c3ccc(C(F)F)cc3)c2)c(Cl)c1 [11/41]         < 100 nM
1  N#Cc1cccc(C#N)c1-c1c(-c2cccc(-c3ccc(C(=O)O)cc3Cl)c2)n(S(=O)(=O)c2ccc(C(F)F)cc2)c2ccccc12 [11/56]         < 100 nM

Next molecule, EC50 to be filled in.
Ask | # EC50 lookup, item Cc1ccc(S(=O)(=O)n2c(-c3cccc(-c4ccc(C(=O)O)cc4)c3)c(-c3ccsc3C#N)c3cc(F)ccc32)cc1C [23/2]
Reply | < 100 nM

---

Recorded EC50 values for a group of compounds are listed next.
target: LXRβ ligand-binding domain (Homo sapiens, UniProt P55055, DUP175-175)
Construct: amino acids 156-461; NP009052; made in house; host or cells: E. coli
Sequence (P55055 with tags, fused parts or gaps DUP175-175 limits assumed): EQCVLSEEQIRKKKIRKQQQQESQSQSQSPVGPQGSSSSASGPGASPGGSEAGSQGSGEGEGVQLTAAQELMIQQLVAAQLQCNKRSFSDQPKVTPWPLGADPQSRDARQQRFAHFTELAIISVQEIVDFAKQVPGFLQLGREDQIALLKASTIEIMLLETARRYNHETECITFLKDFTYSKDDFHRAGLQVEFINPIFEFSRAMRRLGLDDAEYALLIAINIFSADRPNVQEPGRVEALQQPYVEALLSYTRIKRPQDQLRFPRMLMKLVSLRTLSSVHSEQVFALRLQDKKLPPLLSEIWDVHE
measurement protocol: TR-FRETβ activity assay (NCoA3 coactivator peptide recruitment)
Type: biochemical
condition summary: TR-FRET, 1 μM 24(S)-25-epoxycholesterol prestimulation; read-out: FRETβ (EC50 range)

compound	EC50
Cc1cccc(C#N)c1-c1c(-c2cccc(-c3ccc(C(=O)O)cc3Cl)c2)n(S(=O)(=O)c2ccc(C(F)F)cc2)c2ccc(F)cc12 (single isomer, unassigned) [41/2]	< 100 nM
N#Cc1sccc1-c1c(-c2cccs2)n(S(=O)(=O)c2ccc(Cl)cc2)c2ccc(O)cc12	100 to 1000 nM
Cc1ccc(S(=O)(=O)n2c(-c3cccc(-c4cccc(C(=O)NS(C)(=O)=O)c4)c3)c(-c3ccsc3C#N)c3ccccc32)cc1	100 to 1000 nM
Cc1ccc(S(=O)(=O)n2c(-c3ccsc3)c(-c3ccsc3C#N)c3ccccc32)cc1	100 to 1000 nM
COc1cc(F)cc2c(-c3ccsc3C#N)c(-c3cccc(-c4ccc(C(=O)O)cc4)c3)n(S(=O)(=O)c3ccc(C)cc3)c12	< 100 nM
COc1cc(C(=O)O)ccc1-c1cccc(-c2c(-c3ccccc3C#N)c3cc(F)ccc3n2S(=O)(=O)c2ccc(C(F)F)cc2)c1	< 100 nM
COc1ccc(S(=O)(=O)n2c(-c3ccccc3)c(-c3ccsc3OC)c3ccccc32)cc1	100 to 1000 nM
Cc1ccc(S(=O)(=O)n2c(-c3cccc(-c4ccc(C(=O)O)cc4Cl)c3)c(-c3ccc(C)cc3C#N)c3cc(F)ccc32)cc1	100 to 1000 nM
N#Cc1sccc1-c1c(-c2cccc(-c3ccc(C(=O)NCCS(=O)(=O)O)cc3Cl)c2)n(S(=O)(=O)c2ccc(C(F)F)cc2)c2ccc(F)cc12	< 100 nM
COc1ccc(S(=O)(=O)n2c(-c3ccc(CCC(=O)O)cc3)c(-c3ccsc3C#N)c3ccccc32)cc1	1000 to 10000 nM

Ask | # EC50 lookup, item Cc1ccc(S(=O)(=O)n2c(-c3cccc(N4CC(C(=O)O)C4)c3)c(-c3ccsc3C(F)F)c3cc(F)ccc32)cc1
Reply | 100 to 1000 nM

Ask | And Cc1ccc(S(=O)(=O)n2c(-c3ccnc(-c4ccc(C(=O)O)cc4)c3)c(-c3ccsc3C#N)c3cc(F)ccc32)cc1 ?
Reply | 100 to 1000 nM

Ask | And N#Cc1cccc(-c2c(-c3cccc(-c4ccc(C(=O)O)cc4Cl)c3)n(S(=O)(=O)c3ccc(C(F)F)cc3)c3ccc(F)cc23)c1 [C11/48, reference compound] ?
Reply | < 100 nM

Ask | And CC(O)(C(=O)O)c1cc(F)c(-c2cccc(-c3c(-c4c(C#N)cccc4C#N)c4cc(F)ccc4n3S(=O)(=O)c3ccc(C(F)F)cc3)c2)c(F)c1 (centres unmarked) ?
Reply | < 100 nM

The values you see were collected from patent US11618747B2.
